Taken from patent US20230000842A1.

target: CLK3 kinase (Homo sapiens); test: CLK3 kinase activity assay (Z-lyte FRET); settings: Z-lyte Ser/Thr 18 peptide, 156 μM ATP, 1 h at room temperature;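 note: kinase activity read as coumarin/fluorescein emission ratio by FRET, unphosphorylated peptide as 0% and phosphorylated peptide as 100% control, values from non-linear regression of dose-response curves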
Sequence (P49761 whole entry): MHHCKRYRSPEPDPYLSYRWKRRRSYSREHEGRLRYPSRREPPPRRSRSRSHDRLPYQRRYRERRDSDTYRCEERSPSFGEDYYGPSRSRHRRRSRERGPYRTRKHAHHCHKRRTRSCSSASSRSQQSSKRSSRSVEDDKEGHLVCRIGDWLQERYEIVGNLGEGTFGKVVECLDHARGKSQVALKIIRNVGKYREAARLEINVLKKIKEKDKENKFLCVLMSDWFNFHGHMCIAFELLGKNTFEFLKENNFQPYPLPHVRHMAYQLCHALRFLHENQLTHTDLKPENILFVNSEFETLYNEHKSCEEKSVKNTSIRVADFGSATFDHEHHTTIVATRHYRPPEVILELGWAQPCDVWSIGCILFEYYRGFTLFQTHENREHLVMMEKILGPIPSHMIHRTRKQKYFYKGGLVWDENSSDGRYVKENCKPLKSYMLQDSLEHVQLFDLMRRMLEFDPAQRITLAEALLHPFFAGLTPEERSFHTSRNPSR
recorded.metric: EC50 (nM)
Your answer is read as nM, so omit the unit and give the number.

given.smiles | observed.value
CC(C)CC(=O)Nc1cncc(-c2cnc3[nH]nc(-c4nc5c(-c6cccc(F)c6)cncc5[nH]4)c3c2)c1 | 57

# input compound: `CN1CCC(n2cc(C(=O)Nc3cc4cc(-c5cnc6cc[nH]c6c5)ccc4cn3)cn2)CC1` ; wanted: its EC50
9

# EC50 lookup, item `CN(C)CCNc1cc(F)cc(-c2ccnc3[nH]c(-c4n[nH]c5cnc(-c6cncc(NC(=O)C(C)(C)C)c6)cc45)cc23)c1`
49

# lookup: EC50 of `Cc1cn(-c2ccnc3[nH]c(-c4n[nH]c5ccc(-c6cncc(NC(=O)C(C)(C)C)c6)nc45)nc23)cn1`
123

Entry `CC(C)OC(=O)N1CCC(n2cc(C(=O)Nc3cc4cc(-c5cnn(C)c5)ncc4cn3)cn2)CC1` has what EC50?
61

Please give the measured EC50 for this compound: `CCCC(=O)Nc1cncc(-c2ccc3[nH]nc(-c4nc5c(-c6ccsc6)cncc5[nH]4)c3c2)c1`
21

# lookup: EC50 of `Cc1cn(-c2ccnc3[nH]c(-c4n[nH]c5ccc(-c6cncc(NC(=O)C7CCC7)c6)nc45)nc23)cn1`
106

Which EC50 reading was recorded for the compound `CC(C)CC(=O)Nc1cncc(-c2cc3c(-c4cc5c(-c6cccs6)nccc5[nH]4)n[nH]c3cn2)c1` ?
392
